Field: yeast fitness. Provide a value for each of the variants that follow.
B1: tRNA (parent)
chain: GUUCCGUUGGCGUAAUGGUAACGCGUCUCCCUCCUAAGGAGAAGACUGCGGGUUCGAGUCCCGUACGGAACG

variants of: B1; test: yeast fitness relative to wild type (ratio to wild type); higher = fitter; tRNA-Arg(CCU), competitive growth, 37 C, YPD
This sample holds only a part of the variants without activity.

In: I'd like to know its yeast fitness. The variant in question is U16C C30U C34G C49A A70U
Out: ≤ 0.5

In: Need yeast fitness, item C29G C31U A37U C62U A70G
Out: ≤ 0.5

In: Entry G10A A14U A20G U26G C31G C34G A42U A43C G50C : reported yeast fitness = ?
Out: ≤ 0.5

In: // lookup yeast fitness for G6A C34G A37G G67U
Out: ≤ 0.5

In: # query: yeast fitness of entry A21C A36G G67C
Out: ≤ 0.5

In: State the recorded yeast fitness for this entry: U8A G9C G38A A40C
Out: ≤ 0.5

In: Please report the recorded yeast fitness for C5G U7C A20U A43G .
Out: ≤ 0.5

In: Item A15G C49U C60G has what recorded yeast fitness?
Out: ≤ 0.5

In: Any idea what yeast fitness was measured for G23C C49G G51C G52A ?
Out: ≤ 0.5

In: Find the recorded yeast fitness belonging to U7C A20G A37C C60G A65U A70C and report it.
Out: ≤ 0.5

In: # lookup: yeast fitness of A21U G23C A36U
Out: ≤ 0.5

In: Fill blank: measured yeast fitness of the variant G9A C33U A42C A69U is ____.
Out: ≤ 0.5

In: Report yeast fitness for G18C A42C A43C C66G please.
Out: ≤ 0.5

In: Returns the measured yeast fitness for the input variant. Input: C34A A37C G67C A69G
Out: ≤ 0.5

In: Need yeast fitness, item U8C A14G U32A
Out: 0.538

In: Report yeast fitness for U8C A14U C22G C30U please.
Out: 0.581

In: Endpoint output: yeast fitness of U3G U35G A40C G48A C60U U64G A65U A69C . Value?
Out: ≤ 0.5

In: What value of measured yeast fitness is listed for G9A G25C A42C ?
Out: 1

In: Requested read-out: yeast fitness. Entry: C27U A36C U54A C62U
Out: ≤ 0.5

In: Field request: yeast fitness | item: G9A C34U A69U
Out: 0.549

In: Given the variant U13A C34G G50A C60G C61U , what is its reported yeast fitness?
Out: ≤ 0.5

In: Returns the measured yeast fitness for the input variant. Input: U3C U13A A20C C30A C31A U54A C55U
Out: ≤ 0.5

In: What value of yeast fitness has been recorded for this entry: U8G C55U
Out: 0.569

In: Would you kindly share the measured yeast fitness for C22G A36G A42G ?
Out: 0.605

In: Request the reported yeast fitness associated with G10A C27G G63C
Out: ≤ 0.5

In: Recorded yeast fitness of C55A C66G , please.
Out: ≤ 0.5

In: Reported yeast fitness for G9C U32C A36G G52A : what is it?
Out: ≤ 0.5

In: Name the reported yeast fitness value associated with the variant U2A A14G
Out: 0.891

In: Could you tell me which yeast fitness is on file for U3C G67A ?
Out: 0.871

In: Field request: yeast fitness | item: A21C U28A G50A
Out: ≤ 0.5

In: Would you kindly share the measured yeast fitness for U13C A15G A21G U47G A65C ?
Out: ≤ 0.5

In: What value of yeast fitness has been recorded for this entry: C11G A14C C30G A45G U53C
Out: 0.531

In: Give its yeast fitness value. Item: U2C C46U U59C
Out: 0.705

In: Given the entry C27G A70C , report its measured yeast fitness.
Out: 0.786

In: yeast fitness lookup needed for G9A C22A C61U , thanks.
Out: 0.622

In: # lookup: yeast fitness of A40U U54C
Out: 0.802

In: Dear colleague, I am looking for the recorded yeast fitness of the following variant: G10C C62U U64A
Out: ≤ 0.5

In: What yeast fitness value was documented for this variant, G23C C46U A70U ?
Out: 0.622

In: Please give the measured yeast fitness for this variant: U26G U47A
Out: 0.811

In: Which yeast fitness reading was recorded for the variant C4G U19C C62U G63A ?
Out: 0.545

In: What value of measured yeast fitness is listed for C27U A40G G44A ?
Out: 0.513

In: So what's the measured yeast fitness for this one? U13C A21C G50A
Out: 0.509

In: Requested field: yeast fitness. Item: C27A G52A U54A
Out: ≤ 0.5

In: Sample A15G G25A — what was its yeast fitness?
Out: 0.87

In: Consider the variant shown here: U28G A45C What is its recorded yeast fitness?
Out: 0.655

In: Please report the recorded yeast fitness for C31G A43U C46G C62U .
Out: ≤ 0.5

In: I'd like to know its yeast fitness. The variant in question is U7G C55G G56C
Out: 0.608

In: // lookup yeast fitness for C11A C24G
Out: 0.52

In: Entry G10A G17A C30G G67U : reported yeast fitness = ?
Out: ≤ 0.5

In: Find the recorded yeast fitness belonging to G6A C11G A21G C27G C29U U35G G56C G63A U64C G67C and report it.
Out: ≤ 0.5

In: Sample G10C G18A C27G G63C — what was its yeast fitness?
Out: ≤ 0.5

In: Please report the recorded yeast fitness for C4A G10A G56C C60G C66U .
Out: ≤ 0.5

In: For the variant shown here, U8G G25C G41C , give the reported yeast fitness.
Out: 0.644

In: Field request: yeast fitness | item: C4G A14U U32C A45U C49G U64C
Out: ≤ 0.5

In: Record request: yeast fitness value, item U16G C46U U53C A69C
Out: 0.711

In: Item under review: U13A U16A U54A A65G . Reported yeast fitness?
Out: ≤ 0.5

In: # get_value(readout='yeast fitness', item= C22G C31A C49G G63C A69U )
Out: 0.603

In: What measured yeast fitness goes with G23A C62G ?
Out: 0.782

In: State the recorded yeast fitness for this entry: C4U U7A A36U A70G
Out: ≤ 0.5

In: For G12A C29A C60U , what is its reported yeast fitness?
Out: ≤ 0.5

In: Entry under review: C11G G18A G23A . Reported yeast fitness?
Out: ≤ 0.5

In: # yeast fitness lookup, item C29G A36U A42G C55A
Out: ≤ 0.5

In: GET /values?readout=yeast fitness&item= C4A G10A
Out: 0.819

In: What yeast fitness value was documented for this variant, G12A A45G ?
Out: 0.953

In: // yeast fitness lookup, key: C5G A42U
Out: 0.683

In: Which yeast fitness value belongs to G17A G18A A42C C55U ?
Out: 0.508

In: Could you tell me which yeast fitness is on file for C22U C33G ?
Out: 0.551

In: Given the entry A15G U35A A57G C62G , report its measured yeast fitness.
Out: ≤ 0.5

In: For the variant shown here, G12C G68A , give the reported yeast fitness.
Out: 0.945

In: yeast fitness for U8C C55A ?
Out: 0.739

In: Would you kindly share the measured yeast fitness for U2G G6A ?
Out: 0.634
